Hello, the source for this data is patent EP1200395B1, in case you need it.

Target: CCR-3 (Homo sapiens)
Test: Eotaxin-induced chemotaxis of CCR-3 transfectant cells (CCR3/U937)
Assay type: cell-based
Parameters: expressed in transfected cells; host or cells: U937
Conditions: U-937; 10 µM test compound; eotaxin 1 x 10^-9 M; CCR3/U937 cells (Table 3c)
Counter-ions that a name gives are not always drawn.
measurement label: inhibition at 10 µM (%)

Worked examples, 5 molecules total:
| molecule | study target | inhibition at 10 µM (%) |
| --- | --- | --- |
| CC[N+](CCCNC(=O)Nc1ccc(Br)cc1)(CCCC(=O)O)[C@@H](C)c1ccccc1 (stereo partly shown) [Compound 315, trifluoroacetate] | CCR-3 (Homo sapiens) | 63 |
| CC[N+](CC)(CCCNC(=O)Nc1ccc(Br)cc1)CCc1ccc(Cl)cc1 | CCR-3 (Homo sapiens) | 100 |
| CC[N+](CCCNC(=O)Nc1ccccc1)(CCc1ccc(Cl)cc1)Cc1ccc(C(=O)O)cc1 (stereo not shown) | CCR-3 (Homo sapiens) | 93 |
| CC[N+](CCCNC(=O)Nc1ccc(Br)cc1)(CCCC(=O)O)[C@H](C)c1ccccc1 (stereo partly shown) [Compound 316, trifluoroacetate] | CCR-3 (Homo sapiens) | 82 |
| CC[N+](CCCNC(=O)Nc1ccccc1)(CCc1ccc(Cl)cc1)Cc1ccccc1 (stereo not shown) | CCR-3 (Homo sapiens) | 100 |

1: CC[N+](CC)(CCCNC(=O)Nc1ccccc1)CCc1cccc(Cl)c1
2: Cc1ccc(C[N+](CCCNC(=O)Nc2ccccc2)(CCc2ccc(Cl)cc2)Cc2ccc(C)cc2)cc1
Task: From the items above, decide which of 1 and 2 has the lower inhibition at 10 µM reading. Bench note: the answer is the label of the chosen record.
Output: 2
(2: 67%, 1: 100%)

###

Target: CCR-3 (Homo sapiens)
Sequence (P51677 1-355): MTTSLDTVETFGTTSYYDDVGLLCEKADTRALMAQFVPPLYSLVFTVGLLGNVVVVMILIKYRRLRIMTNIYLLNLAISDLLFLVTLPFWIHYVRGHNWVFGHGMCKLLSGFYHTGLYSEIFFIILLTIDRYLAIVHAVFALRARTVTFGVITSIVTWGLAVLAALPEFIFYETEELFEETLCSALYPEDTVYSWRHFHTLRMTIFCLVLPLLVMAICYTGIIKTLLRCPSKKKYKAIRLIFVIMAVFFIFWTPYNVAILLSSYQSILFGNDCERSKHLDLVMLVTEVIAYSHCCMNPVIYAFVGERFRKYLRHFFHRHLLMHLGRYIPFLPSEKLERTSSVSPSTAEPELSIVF
Experiment: Calcium mobilization assay (inhibition of eotaxin-induced intracellular calcium mobilization in CCR3/HEK293 cells)
Type: cell-based
Set-up: expressed in transfected cells
Conditions: 6.25 µg/ml test compound; eotaxin 10 nM; CCR3/HEK293 cells (Table 2a)
measurement label: Ca^2+ mobilization 6.25 µg/ml (inhibition %)

| compound structure string | study target | units of measure | val |
| --- | --- | --- | --- |
| CC(C)CN(CCCNC(=O)Nc1ccc(Br)cc1)Cc1ccc2c(c1)OCO2 | CCR-3 (Homo sapiens) | % | 54 |
| CSCCCN(CCCNC(=O)Nc1ccccc1-c1ccccc1)CCc1ccccc1 | CCR-3 (Homo sapiens) | % | 53 |
| Cc1ccc(CCN(CCCNC(=O)Nc2cccc(Cl)c2)CC(C)C)cc1 | CCR-3 (Homo sapiens) | % | 54 |
| O=C(O)CCCN(CCCNC(=O)Nc1ccc(Cl)c(C(F)(F)F)c1)CCC(c1ccccc1)c1ccccc1 | CCR-3 (Homo sapiens) | % | 57 |

###

Target: CCR-3 (Homo sapiens, UniProt P51677)
Test: Eotaxin-induced chemotaxis of CCR-3 transfectant cells (CCR3/U937)
Format: cell-based
Parameters: expressed in transfected cells; host or cells: U937
Conditions: 10 µM test compound; eotaxin 1 x 10^-9 M; CCR3/U937 cells (Table 3a)
measurement label: Chemotaxis Assay 10 µM (inhibition %)

| molecule | Chemotaxis Assay 10 µM (inhibition %) |
| --- | --- |
| COc1cc(CN(CCCNC(=O)Nc2ccc(Br)cc2)CCCC(=O)O)cc(OC)c1OC | 32 |

P: COC(=O)CCCN(CCCNC(=O)Nc1cccc(C)c1)C1CCCc2ccccc21 (centres unmarked)
Q: O=C(O)CCCN(CCCNC(=O)Nc1ccc(Br)cc1)CCc1c[nH]c2ccccc12
R: O=C(O)CCCN(CCCNC(=O)Nc1ccccc1-c1ccccc1)C1CCCc2ccccc21 (centres unmarked)
Task: Put the items in sequence by Chemotaxis Assay 10 µM (inhibition %), from largest down. The labels, placed in the requested order, form the answer.
Output: P, Q, R
(P: 100%, Q: 50%, R: 19%)

A: COC(=O)CCCN(CCCNC(=O)Nc1ccc(Br)cc1)C1CCCc2ccccc21 (centres unmarked)
B: COC(=O)CCCN(CCCNC(=O)Nc1ccccc1)CCc1ccc(Cl)cc1 [Compound 274]
Task: # argmax over Chemotaxis Assay 10 µM (inhibition %) for candidates A and B Bench note: the answer is the label of the chosen record.
Output: A

###

Molecular target: CCR-3 (Homo sapiens)
Assay: Eotaxin-induced chemotaxis of CCR-3 transfectant cells (CCR3/U937)
Format: cell-based
Set-up: expressed in transfected cells; host or cells: U937
Conditions: 10 µM test compound; eotaxin 1 x 10^-9 M; CCR3/U937 cells (Table 3a)
measurement label: Chemotaxis Assay 10 µM (inhibition %)

Worked examples, 5 compounds total:
| compound | units of measure | Chemotaxis Assay 10 µM (inhibition %) |
| --- | --- | --- |
| O=C(O)CN(CCCNC(=O)Nc1ccc(Br)cc1)C1CCCc2ccccc21 (stereo not drawn) [Compound 186] | % | 69 |
| O=C(O)CCCN(CCCNC(=O)Nc1ccccc1)C1CCCc2ccccc21 (stereo not drawn) [Compound 87] | % | 97 |
| O=C(NCCCN(CCc1ccc(Cl)cc1)Cc1ccccc1)Nc1ccccc1 [Compound 28] | % | 76 |
| CCOC(=O)CCCCCN(CCCNC(=O)Nc1ccccc1)CCc1ccc(Cl)cc1 [Compound 242] | % | 73 |
| COC(=O)CCCN(CCCNC(=O)Nc1ccc(Br)cc1C)C1CCCc2ccccc21 (stereo not drawn) [Compound 200] | % | 100 |

P: COc1ccc(CCN(CCCNC(=O)Nc2ccc(Br)cc2)CCCC(=O)O)cc1OC [Compound 73]
Q: O=C(O)CCCN(CCCNC(=O)Nc1ccc(Br)cc1)Cc1ccc(C(F)(F)F)cc1 [Compound 71]
Task: # argmax over Chemotaxis Assay 10 µM (inhibition %) for candidates P and Q Bench note: the answer is the label of the chosen record.
Output: Q

I: O=C(O)CCCN(CCCNC(=O)Nc1ccccc1)CCc1ccc(Cl)cc1 [Compound 80]
II: COC(=O)CCCN(CCCNC(=O)Nc1ccc(Br)cc1)C1CCc2ccccc21 (stereo not drawn) [Compound 172]
Task: From the items above, decide which of I and II has the lower Chemotaxis Assay 10 µM (inhibition %) reading. Bench note: the answer is the label of the chosen record.
Output: I

I: COC(=O)CCCN(CCCCCNC(=O)Nc1ccc(Br)cc1)C1CCCc2ccccc21 (stereo not drawn) [Compound 33]
II: COC(=O)CCCN(CCCNC(=O)Nc1ccc(Br)cc1)Cc1ccco1 [Compound 38]
Task: # argmax over Chemotaxis Assay 10 µM (inhibition %) for candidates I and II Bench note: the answer is the label of the chosen record.
Output: I
(I: 95%, II: 46%)

###

Molecular target: CCR-3 (Homo sapiens, UniProt P51677)
Test: Eotaxin-induced chemotaxis of CCR-3 transfectant cells (CCR3/U937)
Format: cell-based
Design: expressed in transfected cells; host or cells: U937
Details: test compound 0.1 µg/ml; eotaxin 1 x 10^-9 M; CCR3/U937 transfectants; 37 °C, 1 hour
measurement label: Chemotaxis Assay 0.1 µg/ml (inhibition %)

Worked examples, 2 molecules total:
| molecule | units of measure | val |
| --- | --- | --- |
| CC[N+](CCCNC(=O)Nc1ccc(C(F)(F)F)cc1)(CCOCCOC)CCc1cccc(F)c1.[I-] (stereo not shown) | % | 65 |
| CC[N+](CCF)(CCCNC(=O)Nc1ccc(Cl)c(Cl)c1)CCc1ccccc1.[I-] (stereo not shown) | % | 64 |

A: CCC(CC)C[N+](CC)(CCCNC(=O)Nc1ccccc1)CCc1ccc(Cl)cc1.[I-] (stereo not shown)
B: CCC(CC)C[N+](CC)(CCCNC(=O)Nc1ccccc1)CCc1cccc(F)c1.[I-] (stereo not shown)
Task: From the items above, decide which of A and B has the lower Chemotaxis Assay 0.1 µg/ml (inhibition %) reading. Bench note: the answer is the label of the chosen record.
Output: A

###

Target: UniProt:P51677
Sequence (P51677 1-355): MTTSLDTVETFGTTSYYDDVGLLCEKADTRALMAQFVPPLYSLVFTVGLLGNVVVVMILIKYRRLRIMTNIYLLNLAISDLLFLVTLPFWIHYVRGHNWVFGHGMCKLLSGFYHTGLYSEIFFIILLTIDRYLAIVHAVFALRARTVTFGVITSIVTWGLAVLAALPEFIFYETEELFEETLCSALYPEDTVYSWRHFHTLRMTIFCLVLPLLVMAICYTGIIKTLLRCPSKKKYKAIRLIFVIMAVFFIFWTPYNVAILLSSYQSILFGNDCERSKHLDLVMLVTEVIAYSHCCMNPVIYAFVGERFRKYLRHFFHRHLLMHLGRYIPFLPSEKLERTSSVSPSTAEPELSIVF
Experiment: Eotaxin-induced chemotaxis of CCR-3 transfectant cells (CCR3/U937)
Assay type: cell-based
Parameters: expressed in transfected cells; host or cells: U937
Conditions: 6.25 µg/ml test compound; eotaxin 1 x 10^-9 M; CCR3/U937 cells (Table 3b)
Experimental: The inhibitory activity of the compounds against eotaxin-induced chemotaxis was determined by measuring the inhibition of migration of CCR-3 transfectant cells (CCR3/U937), using a minor modification of the method described by Ohashi, H. et al., Int Arch Allergy Immunol. […] The chemotaxis assay was performed in a 24-well culture plate. […] After incubation, migrated cells in lower wells were diluted and counted by particle size distribution analyzer (CDP-500, Sysmex Co., Ltd.).
measurement label: CCR-3 Transfectant Chemotaxis Assay 6.25 µg/ml (inhibition %)

| compound | val |
| --- | --- |
| O=C(NCCCN(CCOCc1ccccc1)CCc1c[nH]cn1)Nc1ccc(Br)cc1 [Compound 121] | 64 |
| COc1ccc(CCN(CCCNC(=O)Nc2ccccc2-c2ccccc2)CC(C)C)cc1OC [Compound 108] | 23 |
| O=C(NCCCN(CCc1ccccc1)CCc1c[nH]cn1)Nc1ccc(Br)cc1 [Compound 120] | 34 |

I: O=C(NCCCN(CCc1ccccc1)C[C@@H]1CCCN1)Nc1ccccc1-c1ccccc1 [Compound 107]
II: O=C(O)CCCN(CCCNC(=O)Nc1ccc(Cl)c(C(F)(F)F)c1)CCC(c1ccccc1)c1ccccc1 [Compound 97]
Task: From the items above, decide which of I and II has the lower CCR-3 Transfectant Chemotaxis Assay 6.25 µg/ml (inhibition %) reading. Bench note: the answer is the label of the chosen record.
Output: II
(II: 21%, I: 55%)
